assay: Cytoprotective activity in human embryo L02 cells assessed as inhibition of D-galactosamine-induced cytotoxicity at 12.5 ug/ml treated for 1 hr prior to D-galactosamine challenge measured after 48 hrs by MTT assay relative to control; format: functional
Quantity Measured: inhibition at 12.5 µg/mL (%)
Please reply with the bare figure in % and do not write the unit itself.

// worked examples, inhibition at 12.5 µg/mL included
- Molecule: "CC(C)[C@]1(CO[C@@H]2O[C@H](CO)[C@@H](O)[C@H](O)[C@H]2O)CC[C@@](C)([C@H]2[C@H](O)C[C@]3(C)[C@@H]2CC[C@@H]2[C@@]4(C)CC[C@H](O[C@@H]5O[C@H](CO)[C@@H](O)[C@H](O)[C@H]5O[C@@H]5O[C@H](CO)[C@@H](O)[C@H](O)[C@H]5O)C(C)(C)[C@@H]4CC[C@]23C)O1 [OPERCULINOSIDE B]"
  inhibition at 12.5 µg/mL, %: -6.9
- Molecule: "CC(C)(O)[C@@H]1CC[C@@](C)([C@H]2[C@H](O)C[C@]3(C)[C@@H]2CC[C@@H]2[C@@]4(C)CC[C@H](O[C@@H]5O[C@H](CO)[C@@H](O)[C@H](O)[C@H]5O[C@@H]5O[C@H](CO)[C@@H](O)[C@H](O)[C@H]5O)C(C)(C)[C@@H]4CC[C@]23C)O1 [OPERCULINOSIDE C]"
  inhibition at 12.5 µg/mL, %: 44.1
- Molecule: "CC(C)(O[C@@H]1O[C@H](CO)[C@@H](O)[C@H](O)[C@H]1O)[C@@H]1CC[C@@](C)([C@H]2[C@H](O)C[C@]3(C)[C@@H]2CC[C@@H]2[C@@]4(C)CC[C@H](O[C@@H]5O[C@H](CO)[C@@H](O)[C@H](O)[C@H]5O[C@@H]5O[C@H](CO)[C@@H](O)[C@H](O)[C@H]5O)C(C)(C)[C@@H]4CC[C@]23C)O1 [OPERCULINOSIDE D]"
  inhibition at 12.5 µg/mL, %: 22.2

Need inhibition at 12.5 µg/mL, item CC(C)[C@]1(CO)CC[C@@](C)([C@H]2[C@H](O)C[C@]3(C)[C@@H]2CC[C@@H]2[C@@]4(C)CC[C@H](O[C@@H]5O[C@H](CO)[C@@H](O)[C@H](O)[C@H]5O[C@@H]5O[C@H](CO)[C@@H](O)[C@H](O)[C@H]5O)C(C)(C)[C@@H]4CC[C@]23C)O1 [OPERCULINOSIDE A]
46.7
